- experimental.system: MAGI1_2, Q96QZ7
- Sequence (Q96QZ7 456-580): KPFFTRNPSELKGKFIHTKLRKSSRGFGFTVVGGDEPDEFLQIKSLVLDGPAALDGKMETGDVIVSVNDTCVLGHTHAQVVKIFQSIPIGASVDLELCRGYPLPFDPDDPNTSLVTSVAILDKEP
- measurement.notes: holdup assay
- Parameters: key: below the threshold = too weak to quantify, mostly under pKd 3.1 to 4
- experimental.setup: plain residues with an end cap or a label only (N-terminal biotin on a linker: ttds)
measure.name: pKd

[[record]]
binder = "PKRPFVESNV [TANC2, Q9HCD6]"
data_value = "below the threshold"

[[record]]
binder = "LDSQIQETSI [MAP4, P27816]"
data_value = "below the threshold"

[[record]]
binder = "VNKVWDQSSV [CIT, O14578]"
data_value = "below the threshold"


Values compiled from paper PMC9482650.
